All figures here come from patent US20220177587A1.

Measured MFI at 33.3 nM accompanies every entry in the list below.
target: CD28 (human) (UniProt P10747); experiment: flow cytometry, Jurkat/IL2 reporter cells (endogenous CD28)

| BINDER | MFI at 33.3 nM |
| --- | --- |
| variant CD80 IgV-Fc Q33L/E35D/M47I/L85Q (Fc fusion) VIHVTKEVKEVATLSCGHNVSVEELAQTRIYWLKDKKMVLTMMSGDINIWPEYKNRTIFDITNNLSIVILALRPSDEGTYECVVQKYEKDAFKREHLAEVTLSVKAD | 287 MFI |
| variant CD80 IgV-Fc H18Y/Y31H/E35D/M47V/A71G/L85Q (Fc fusion) VIHVTKEVKEVATLSCGYNVSVEELAQTRIHWQKDKKMVLTMMSGDVNIWPEYKNRTIFDITNNLSIVILGLRPSDEGTYECVVQKYEKDAFKREHLAEVTLSVKAD | 268 MFI |
| variant CD80 IgV-Fc Q33L/E35D/M43I/L85Q/R94W (Fc fusion) VIHVTKEVKEVATLSCGHNVSVEELAQTRIYWLKDKKMVLTMISGDMNIWPEYKNRTIFDITNNLSIVILALRPSDEGTYECVVQKYEKDAFKWEHLAEVTLSVKAD | 272 MFI |
| variant CD80 IgV-Fc Q33K/E35D/D46V/L85Q (Fc fusion) VIHVTKEVKEVATLSCGHNVSVEELAQTRIYWKKDKKMVLTMMSGVMNIWPEYKNRTIFDITNNLSIVILALRPSDEGTYECVVQKYEKDAFKREHLAEVTLSVKAD | 257 MFI |
| variant CD80 IgV-Fc H18Y/V20A/Q33L/E35D/M47V/Y53F (Fc fusion) VIHVTKEVKEVATLSCGYNASVEELAQTRIYWLKDKKMVLTMMSGDVNIWPEFKNRTIFDITNNLSIVILALRPSDEGTYECVVLKYEKDAFKREHLAEVTLSVKAD | 260 MFI |
